This document collects pIC50 values reported for UniProt P42345.
Quick note: pIC50 means taking -log10 of the concentration in moles per liter.

>>> number("Cc1nc(N)nc(-n2c(Nc3ccc(NC(=O)Nc4ccncc4)cc3)nc3ccccc32)n1")
8.36

Notebook: pull reported pIC50 for UniProt P42345, entry CNc1nc(C)nc(-n2c(Nc3cc[nH]n3)nc3cc(C)c(C)cc32)n1
7.41

* * *

Test system: phosphorylation of Akt at Serine 473
test_details: pAkt AlphaScreen in U87 MG cells
Assay type: cell-based
experimental_context: Homo sapiens, U-87 MG, 2 h; U87 MG cells, two hours with compound; read-out: AA11809+++pAKT_U87_IC50_IP
recorded_endpoint: IC50 (nM)
Just the number in nM, nothing appended.

Can you share its IC50? I mean this molecule: Cc1nc(N)nc(-n2c(Nc3ccc(NC(=O)Nc4ccncc4)cc3)nc3ccccc32)n1 [Cpd 115]
132

Can you share its IC50? I mean this molecule: CNc1nc(C)nc(-n2c(Nc3cc[nH]n3)nc3cc(C)c(C)cc32)n1 [Cpd 138]
158
